# system: PI3K β (Homo sapiens (Human), UniProt P42338)
# Sequence (P42338 whole entry): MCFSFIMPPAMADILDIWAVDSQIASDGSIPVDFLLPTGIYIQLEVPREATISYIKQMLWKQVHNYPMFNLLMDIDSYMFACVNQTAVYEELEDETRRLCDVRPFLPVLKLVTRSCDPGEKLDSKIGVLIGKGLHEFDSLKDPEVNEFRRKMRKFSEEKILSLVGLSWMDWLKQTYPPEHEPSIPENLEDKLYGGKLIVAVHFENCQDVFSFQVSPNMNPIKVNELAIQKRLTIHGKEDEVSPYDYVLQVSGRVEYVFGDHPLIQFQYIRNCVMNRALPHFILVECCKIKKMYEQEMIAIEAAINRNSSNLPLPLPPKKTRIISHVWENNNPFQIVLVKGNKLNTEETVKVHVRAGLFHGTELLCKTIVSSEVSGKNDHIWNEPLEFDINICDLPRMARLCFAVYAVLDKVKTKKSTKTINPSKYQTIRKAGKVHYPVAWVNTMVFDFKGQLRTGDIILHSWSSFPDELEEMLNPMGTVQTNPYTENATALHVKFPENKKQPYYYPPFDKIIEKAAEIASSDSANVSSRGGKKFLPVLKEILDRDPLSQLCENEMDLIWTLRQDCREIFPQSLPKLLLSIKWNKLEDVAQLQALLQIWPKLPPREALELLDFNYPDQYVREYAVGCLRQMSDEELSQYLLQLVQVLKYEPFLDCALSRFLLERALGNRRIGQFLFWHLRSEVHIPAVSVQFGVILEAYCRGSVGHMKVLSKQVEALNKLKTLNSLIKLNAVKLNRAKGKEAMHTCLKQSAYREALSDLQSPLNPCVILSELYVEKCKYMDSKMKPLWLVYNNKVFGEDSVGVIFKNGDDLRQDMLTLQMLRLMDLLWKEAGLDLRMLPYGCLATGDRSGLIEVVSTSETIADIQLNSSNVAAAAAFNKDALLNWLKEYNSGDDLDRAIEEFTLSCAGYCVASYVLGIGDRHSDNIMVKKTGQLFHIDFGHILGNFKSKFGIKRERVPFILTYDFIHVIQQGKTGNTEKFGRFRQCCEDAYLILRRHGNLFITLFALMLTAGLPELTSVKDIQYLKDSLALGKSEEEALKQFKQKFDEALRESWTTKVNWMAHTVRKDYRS
# Sequence (P27986 whole entry partner): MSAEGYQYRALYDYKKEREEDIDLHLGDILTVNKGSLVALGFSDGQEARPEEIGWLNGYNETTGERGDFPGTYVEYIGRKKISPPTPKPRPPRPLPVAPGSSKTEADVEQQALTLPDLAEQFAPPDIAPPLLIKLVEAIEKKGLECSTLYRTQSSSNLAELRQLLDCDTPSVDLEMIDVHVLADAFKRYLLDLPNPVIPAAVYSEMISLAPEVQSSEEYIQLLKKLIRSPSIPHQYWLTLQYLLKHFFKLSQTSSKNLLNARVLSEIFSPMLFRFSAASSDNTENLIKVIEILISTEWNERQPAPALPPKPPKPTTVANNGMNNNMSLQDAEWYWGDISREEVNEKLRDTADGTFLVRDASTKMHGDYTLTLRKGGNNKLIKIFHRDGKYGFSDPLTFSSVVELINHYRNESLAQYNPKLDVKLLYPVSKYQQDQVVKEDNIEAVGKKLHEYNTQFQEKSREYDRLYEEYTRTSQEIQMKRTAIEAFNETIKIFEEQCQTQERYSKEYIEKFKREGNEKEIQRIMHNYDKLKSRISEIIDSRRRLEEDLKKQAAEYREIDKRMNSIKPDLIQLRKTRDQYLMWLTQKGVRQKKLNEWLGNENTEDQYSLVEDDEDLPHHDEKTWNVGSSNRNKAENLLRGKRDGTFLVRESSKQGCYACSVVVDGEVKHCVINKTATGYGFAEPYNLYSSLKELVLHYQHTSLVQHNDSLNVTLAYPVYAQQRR
pIC50: −log10 of the molar value.
readout label: pIC50

C[C@@H]1COCCN1C1CN(c2cnc3ccc(-c4ccc5oc(N)nc5c4)nc3n2)C1 ... < 5.00
CC(C)N1CCC(n2cnc3ccc(-c4cnc(Cl)c(NS(C)(=O)=O)c4)cc3c2=O)CC1 ... > 6.00

State the recorded pIC50 for every item in the following list.
1. C[C@H]1CN(C2CN(c3cnc4ccc(-c5ccc6oc(N)nc6c5)nc4n3)C2)CCN1
2. C[C@H](N)C(=O)N1CCN(c2cnc3ccc(-c4ccc5oc(N)nc5c4)cc3n2)CC1
3. Cc1nccn1C1CN(c2cnc3ccc(-c4ccc5oc(N)nc5c4)cc3n2)C1

Completion:
1. < 5.00
2. > 7.00
3. > 5.00

###

Field: IC50. Provide a value for each of the molecules that follow.
# system: PI3K β (Homo sapiens (Human), UniProt P42338)

Worked set:
Cn1c(=O)n(-c2ccc(C(C)(C)C#N)cc2)c2c3cc(-c4ccc5oc(N)nc5c4)ccc3ncc21 ... < 0.1 µM
Nc1nc2ccc(-c3ccc4ncn(C5CCOCC5)c(=O)c4c3)cc2o1 ... > 10 µM
CN1CCN(C(=O)c2cnc3ccc(-c4ccc5nc(N)sc5c4)cn23)CC1 ... < 10 µM
Nc1nc2ccc(-c3ccc4ncc(C(=O)N5CCOCC5)n4c3)cc2s1 ... > 10 µM
Nc1nc2cc(-c3cnc4ccc(N5CCOCC5)nc4c3)ccc2o1 ... > 10 µM
Nc1nc2cc(-c3ccc4ncc(N5CCC(O)C5)nc4c3)ccc2o1 (stereo not shown) ... < 1 µM
NC(=O)[C@H]1CCCN1C(=O)C1CN(c2cnc3ccc(-c4ccc5oc(N)nc5c4)cc3n2)C1 ... < 10 µM
Cc1cc2oc(N)nc2cc1-c1ccc2ncc(N3CCN[C@@H](C)C3)nc2c1 ... < 1 µM

State the recorded IC50 for every item in the following list.
1. C[C@H]1CN(c2cnc3ccc(-c4cccc5nc(N)oc45)cc3n2)CCN1
2. Nc1nc2cc(-c3ccc4ncc(N5CC(N6CCN(C7CC7)CC6)C5)cc4n3)ccc2o1
3. Nc1nc2cc(-c3ccc4ncc(C(=O)NCCCN5CCCC5)n4c3)ccc2o1
4. CO[C@@H]1CCN(C(=O)c2cnc3ccc(-c4ccc5oc(N)nc5c4)cn23)C1
5. CN1CCC(N(C)c2cnc3ccc(-c4ccc5oc(N)nc5c4)cc3n2)CC1
6. Nc1nc2cc(-c3ccc4ncc(N5CC(N6CCN(CCO)CC6)C5)nc4c3)ccc2o1

Completion:
["> 10 µM", "< 10 µM", "< 1 µM", "> 10 µM", "< 10 µM", "< 10 µM"]

State the recorded IC50 for every item in the following list.
1. CN1CCN(C(=O)c2cnc3ccc(-c4ccc5oc(N)nc5c4)nn23)CC1
2. Nc1nc2cc(-c3ccc4ncc(N5CCOCC5)nc4c3)ccc2o1
3. CS(=O)(=O)N1CCN(C(=O)c2cnc3ccc(-c4ccc5oc(N)nc5c4)cn23)CC1
4. Nc1nc2cc(-c3ccc4ncc(N5CC[C@H](N6CCOCC6)C5)nc4c3)ccc2o1
5. Nc1nc2cc(-c3ccc4ncc(N5CCN(C(=O)CN6CCCC6)CC5)nc4c3)ccc2o1

Completion:
1: > 10 µM; 2: < 1 µM; 3: > 10 µM; 4: < 10 µM; 5: < 1 µM
